test system: EKVX NSCLC; test: NCI tumour cell line growth inhibition, 48 h
Returns one of condition met or condition not met; condition met when TGI is >= 50 µM.

molecule="O=C(c1ccccc1)C(Br)C(Br)c1ccccc1 (stereo not drawn)" answer_label="condition not met"
molecule=O=C1C=C/C(=C/[C@H]2SSC=C[C@]23C=CC(=O)C3)C1 answer_label="condition met"
molecule=CN(/N=C\c1ccc2ccccc2c1)C1=NCCCN1 answer_label="condition met"
molecule=Cc1ccc(NC(=O)C(=O)Cc2cccc[n+]2[O-])cc1C answer_label="condition met"
molecule=Cc1nc(-n2nc(-c3ccccc3)cc2-c2ccccc2)sc1C(=O)/C=C/c1ccccc1 answer_label="condition met"
molecule="CC(C)=CCC/C(C)=C/C=C/C(C)=C/C1C[C@@]2(C(O)O1)[C@H](CCCO)/C(=C(/C)C=O)CC[C@]2(C)O (stereo partly drawn)" answer_label="condition not met"
molecule="CC(CC=O)Nc1nn2c(=O)c3ccccc3nc2s1 (stereo not drawn)" answer_label="condition met"
molecule=COc1ccc(/C=N/NC(=S)Nc2cc(C)ccc2OC)cc1 answer_label="condition met"
